- Test system: Pseudomonas aeruginosa ATCC 27853
- Protocol Details: Injectable formulations on mice infected with peritonitis
- Type: in vivo, ICR mice
- Stated Conditions: 5 mg/kg via tail vein, twice a day for 3 days, n = 10
Non-standard residues stand in square brackets, D forms with d. Residues, ends and D or L forms follow the SMILES beside them. dPhe(3,4-F2) = N[C@H](Cc1ccc(F)c(F)c1)C(=O)O; d2Nal = N[C@H](Cc1ccc2ccccc2c1)C(=O)O
Exercise: state measured Number of mice that died on each day after infection: day 1 for each of the compounds provided.
Numeric answer only, unit Mouse assumed.

Lookup: # query: Number of mice that died on each day after infection: day 1 of entry CC(=O)N[C@H](CCCCN)C(=O)N[C@H](CCCCN)C(=O)N[C@H](CC(C)C)C(=O)N[C@H](CC(C)C)C(=O)N[C@H](Cc1ccc(F)c(F)c1)C(=O)N[C@H](CCCNC(=N)N)C(=O)N[C@H](CC(C)C)C(=O)N[C@H](CCCCN)C(=O)N[C@H](Cc1ccc(F)c(F)c1)C(=O)N[C@H](CCCNC(=N)N)C(=O)N[C@H](CCCCN)C(N)=O [LV-25] (Ac-[dK][dK][dL][dL][dPhe(3,4-F2)][dR][dL][dK][dPhe(3,4-F2)][dR][dK]-NH2)
Found: 0

Lookup: # query: Number of mice that died on each day after infection: day 1 of entry C[C@H]1COc2c(N3CCN(C)CC3)c(F)cc3c(=O)c(C(=O)O)cn1c23 [Levofloxacin, reference compound]
Found: 3

Lookup: Number of mice that died on each day after infection: day 1 lookup needed for CC(=O)N[C@H](CCCNC(=N)N)C(=O)N[C@H](CCCCN)C(=O)N[C@H](CC(C)C)C(=O)N[C@H](CC(C)C)C(=O)N[C@H](Cc1ccc2ccccc2c1)C(=O)N[C@H](CCCNC(=N)N)C(=O)N[C@H](CC(C)C)C(=O)N[C@H](CCCCN)C(=O)N[C@H](Cc1ccc2ccccc2c1)C(=O)N[C@H](CCCNC(=N)N)C(=O)N[C@H](CCCCN)C(N)=O [LV-20] (Ac-[dR][dK][dL][dL][d2Nal][dR][dL][dK][d2Nal][dR][dK]-NH2) , thanks.
Found: 1

Lookup: State the recorded Number of mice that died on each day after infection: day 1 for this entry: CC(=O)N[C@H](CCCNC(=N)N)C(=O)N[C@H](CCCCN)C(=O)N[C@H](CC(C)C)C(=O)N[C@H](CC(C)C)C(=O)N[C@H](Cc1ccc2ccccc2c1)C(=O)N[C@H](CCCCN)C(=O)N[C@H](CC(C)C)C(=O)N[C@H](CCCCN)C(=O)N[C@H](Cc1ccc2ccccc2c1)C(=O)N[C@H](CCCCN)C(=O)N[C@H](CCCNC(=N)N)C(N)=O [LV-18] (Ac-[dR][dK][dL][dL][d2Nal][dK][dL][dK][d2Nal][dK][dR]-NH2)
Found: 0

Lookup: Which Number of mice that died on each day after infection: day 1 value is on record for CC(=O)N[C@H](CCCCN)C(=O)N[C@H](CCCCN)C(=O)N[C@H](CC(C)C)C(=O)N[C@H](CC(C)C)C(=O)N[C@H](Cc1ccc2ccccc2c1)C(=O)N[C@H](CCCNC(=N)N)C(=O)N[C@H](CC(C)C)C(=O)N[C@H](CCCCN)C(=O)N[C@H](Cc1ccc2ccccc2c1)C(=O)N[C@H](CCCNC(=N)N)C(=O)N[C@H](CCCCN)C(N)=O [LV-19] (Ac-[dK][dK][dL][dL][d2Nal][dR][dL][dK][d2Nal][dR][dK]-NH2) ?
Found: 1
